target: IRAK4 (Homo sapiens (Human), UniProt Q9NWZ3); experiment: IRAK4 MSD degradation in OCI-LY10; format: cell-based; conditions: OCI-LY10, 4 hrs; read-out: IRAK4 MSD degradation in OCI-LY10 at 4 hrs: DC50
Sequence (Q9NWZ3 whole entry): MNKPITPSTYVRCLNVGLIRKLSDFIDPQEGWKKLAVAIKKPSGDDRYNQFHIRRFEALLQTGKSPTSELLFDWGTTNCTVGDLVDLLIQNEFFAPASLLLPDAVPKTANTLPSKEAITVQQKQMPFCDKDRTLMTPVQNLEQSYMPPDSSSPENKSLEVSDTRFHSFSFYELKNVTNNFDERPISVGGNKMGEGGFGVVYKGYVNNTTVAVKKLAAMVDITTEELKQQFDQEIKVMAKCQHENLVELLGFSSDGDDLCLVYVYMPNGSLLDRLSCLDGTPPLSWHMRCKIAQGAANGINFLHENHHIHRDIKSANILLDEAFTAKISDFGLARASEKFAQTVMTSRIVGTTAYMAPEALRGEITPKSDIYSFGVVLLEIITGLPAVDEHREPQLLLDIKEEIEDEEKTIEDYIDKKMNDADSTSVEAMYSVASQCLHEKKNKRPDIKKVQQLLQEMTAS
measure: DC50

Solved entries (count: 8):
compound	DC50
CN(CC1CCC(n2cc(NC(=O)c3cnn4ccc(N5C[C@H]6C[C@@H]5CO6)nc34)c(C(F)F)n2)CC1)[C@H]1C[C@H](Nc2cccc3c2C(=O)N(C2CCC(=O)NC2=O)C3=O)C1 (stereo partly shown)	0.1 to 1 µM
CN1C(=O)C(C2CCC(=O)NC2=O)c2cc(C#CCOC3CCN(C[C@H]4CC[C@H](C5N=C(NC(=O)c6cnn7ccc(N8C[C@H]9C[C@@H]8CO9)nc67)C(C(F)F)=N5)CC4)CC3)ccc21 (stereo partly shown)	0.1 to 1 µM
Cn1c(=O)n(C2CCC(=O)NC2=O)c2cccc(CCCC3CCN(C[C@H]4CC[C@H](n5cc(NC(=O)c6cnn7ccc(N8CCOC(C)(C)C8)nc67)c(C(F)F)n5)CC4)CC3)c21 (stereo partly shown)	0.01 to 0.1 µM
Cn1c(=O)n(C2CCC(=O)NC2=O)c2cccc(CCCOC3CCN(C[C@H]4CC[C@H](n5cc(NC(=O)c6cnn7ccc(N8CCOC9(CCC9)C8)nc67)c(C(F)F)n5)CC4)CC3)c21 (stereo partly shown)	0.01 to 0.1 µM
CN(CCCc1cccc2c1n(C)c(=O)n2C1CCC(=O)NC1=O)C(=O)c1ccc(N2CCC(n3cc(NC(=O)c4cnn5ccc(N6C[C@H]7C[C@@H]6CO7)nc45)c(C(F)F)n3)CC2)cc1 (stereo partly shown)	0.1 to 1 µM
Cn1c(=O)n(C2CCC(=O)NC2=O)c2cccc(C#CCOC3CCN(C[C@H]4CC[C@H](n5cc(NC(=O)c6cnn7ccc(N8C[C@H]9CC[C@@H](C8)O9)nc67)c(C(F)F)n5)CC4)CC3)c21 (stereo partly shown)	< 0.01 µM
Cn1c(=O)n(C2CCC(=O)NC2=O)c2cccc(C#CCC3CCN(C[C@H]4CC[C@H](n5cc(NC(=O)c6cnn7ccc(N8CCCOCC8)nc67)c(C(F)F)n5)CC4)CC3)c21 (stereo partly shown)	< 0.01 µM
CN(Cc1ccc(OCCCNc2cccc3c2C(=O)N(C2CCC(=O)NC2=O)C3=O)nc1)C[C@H]1CC[C@H](n2cc(NC(=O)c3cnn4ccc(N5CCOCC5)nc34)c(C(F)F)n2)CC1 (stereo partly shown)	0.01 to 0.1 µM

Please give DC50, item by item, for the list that follows.
1. O=C1CCC(N2C(=O)c3cccc(NCCCOCCCN4CCN(c5ncc(-n6cc(NC(=O)c7cnn8ccc(N9CCOCC9)nc78)c(C(F)F)n6)cn5)CC4)c3C2=O)C(=O)N1 (stereo not shown)
2. Cn1c(=O)n(C2CCC(=O)NC2=O)c2cccc(CCC3CC4(CCN(C[C@H]5CC[C@H](n6cc(NC(=O)c7cnn8ccc(N9C[C@H]%10C[C@@H]9CO%10)nc78)c(C(F)F)n6)CC5)CC4)C3)c21 (stereo partly shown)

1: 0.1 to 1 µM; 2: < 0.01 µM

This collection of values is drawn from patent US11352350B2.
